# Tested on: SK-MES-1
# EXPERIMENTAL PROTOCOL: relative viability (nuclei count vs DMSO), 5 days (fraction); higher = more cells survive
# RECORDED CONDITIONS: first compound 0.8 µM
OBSERVED PROPERTY: relative viability
Number only, please.

Bench note: what relative viability did Oc1nc(-c2ccc(C(F)(F)F)cc2)nc2c1CSCC2 [XAV939] + CS(=O)(=O)CCNCc1ccc(-c2ccc3ncnc(Nc4ccc(OCc5cccc(F)c5)c(Cl)c4)c3c2)o1 [Lapatinib] (partner 2 µM) show? 0.424

Try this compound too: Oc1nc(-c2ccc(C(F)(F)F)cc2)nc2c1CSCC2 [XAV939] + Nc1nc2[nH]cc(CCc3ccc(C(=O)N[C@@H](CCC(=O)O)C(=O)O)cc3)c2c(=O)[nH]1 [Pemetrexed] (partner 0.2 µM) 0.835

Try this compound too: C=C1C(=O)O[C@@H](CCCCCCCC)[C@@H]1C(=O)O [C-75] + CS(=O)(=O)N1CCN(Cc2cc3nc(-c4cccc5[nH]ncc45)nc(N4CCOCC4)c3s2)CC1 [Pictilisib] (partner 1 µM) 0.374

Try this compound too: Oc1nc(-c2ccc(C(F)(F)F)cc2)nc2c1CSCC2 [XAV939] + C[C@]1(O)C[C@@H](c2nc(-c3ccc4ccc(-c5ccccc5)nc4c3)c3c(N)nccn32)C1 [Linsitinib] (partner 1 µM) 1.03

Try this compound too: Oc1nc(-c2ccc(C(F)(F)F)cc2)nc2c1CSCC2 [XAV939] + CS(=O)(=O)N1CCN(Cc2cc3nc(-c4cccc5[nH]ncc45)nc(N4CCOCC4)c3s2)CC1 [Pictilisib] (partner 1 µM) 0.415

Try this compound too: Oc1nc(-c2ccc(C(F)(F)F)cc2)nc2c1CSCC2 [XAV939] + O=C(CCCCCCC(=O)Nc1ccccc1)NO [Vorinostat] (partner 1 µM) 0.92

Further cases:
Bench note: what relative viability did Oc1nc(-c2ccc(C(F)(F)F)cc2)nc2c1CSCC2 [XAV939] + COc1cccc2cc(-c3nc([C@H]4CC[C@H](C(=O)O)CC4)n4ncnc(N)c34)[nH]c12 [OSI-027] (partner 0.5 µM) show? 0.631

Try this compound too: Oc1nc(-c2ccc(C(F)(F)F)cc2)nc2c1CSCC2 [XAV939] + CC1(C)CCC(c2ccc(Cl)cc2)=C(CN2CCN(c3ccc(C(=O)NS(=O)(=O)c4ccc(N[C@H](CCN5CCOCC5)CSc5ccccc5)c(S(=O)(=O)C(F)(F)F)c4)cc3)CC2)C1 [Navitoclax] (partner 0.5 µM) 1.12

----------
# System: NCI-H1666
# EXPERIMENTAL PROTOCOL: relative viability (nuclei count vs DMSO), 5 days (fraction); higher = more cells survive
# RECORDED CONDITIONS: first compound 0.5 µM
OBSERVED PROPERTY: relative viability
Number only, please.

Bench note: what relative viability did CC1(C)CCC(c2ccc(Cl)cc2)=C(CN2CCN(c3ccc(C(=O)NS(=O)(=O)c4ccc(N[C@H](CCN5CCOCC5)CSc5ccccc5)c(S(=O)(=O)C(F)(F)F)c4)cc3)CC2)C1 [Navitoclax] + CS(=O)(=O)CCNCc1ccc(-c2ccc3ncnc(Nc4ccc(OCc5cccc(F)c5)c(Cl)c4)c3c2)o1 [Lapatinib] (partner 2 µM) show? 0.425

Read the next record carefully.
Bench note: what relative viability did CC1(C)CCC(c2ccc(Cl)cc2)=C(CN2CCN(c3ccc(C(=O)NS(=O)(=O)c4ccc(N[C@H](CCN5CCOCC5)CSc5ccccc5)c(S(=O)(=O)C(F)(F)F)c4)cc3)CC2)C1 [Navitoclax] + N=C(N)NC(=N)NCCc1ccccc1 [Phenformin] (partner 250 µM) show? 0.559

----------
Here, each record is paired with measured relative viability data.
# Tested on: NCI-H1648
# EXPERIMENTAL PROTOCOL: relative viability (nuclei count vs DMSO), 5 days (fraction); higher = more cells survive
# RECORDED CONDITIONS: first compound 0.5 µM
Number only, please.

The cases that follow already have their relative viability on record.
Bench note: what relative viability did CC1(C)CCC(c2ccc(Cl)cc2)=C(CN2CCN(c3ccc(C(=O)NS(=O)(=O)c4ccc(N[C@H](CCN5CCOCC5)CSc5ccccc5)c(S(=O)(=O)C(F)(F)F)c4)cc3)CC2)C1 [Navitoclax] + NC(=O)Nc1cc(-c2cccc(F)c2)sc1C(=O)N[C@H]1CCCNC1 [AZD7762] (partner 0.2 µM) show? 0.604

Try this compound too: CC1(C)CCC(c2ccc(Cl)cc2)=C(CN2CCN(c3ccc(C(=O)NS(=O)(=O)c4ccc(N[C@H](CCN5CCOCC5)CSc5ccccc5)c(S(=O)(=O)C(F)(F)F)c4)cc3)CC2)C1 [Navitoclax] + O=C(CCCCCCC(=O)Nc1ccccc1)NO [Vorinostat] (partner 1 µM) 0.431

Try this compound too: CC1(C)CCC(c2ccc(Cl)cc2)=C(CN2CCN(c3ccc(C(=O)NS(=O)(=O)c4ccc(N[C@H](CCN5CCOCC5)CSc5ccccc5)c(S(=O)(=O)C(F)(F)F)c4)cc3)CC2)C1 [Navitoclax] + CC(=O)Nc1cccc(-n2c(=O)n(C3CC3)c(=O)c3c(Nc4ccc(I)cc4F)n(C)c(=O)c(C)c32)c1 [Trametinib] (partner 0.02 µM) 0.402

Further cases:
Bench note: what relative viability did CC1(C)CCC(c2ccc(Cl)cc2)=C(CN2CCN(c3ccc(C(=O)NS(=O)(=O)c4ccc(N[C@H](CCN5CCOCC5)CSc5ccccc5)c(S(=O)(=O)C(F)(F)F)c4)cc3)CC2)C1 [Navitoclax] + Cc1cc(Nc2cc(N3CCN(C)CC3)nc(Sc3ccc(NC(=O)C4CC4)cc3)n2)n[nH]1 [Tozasertib] (partner 0.1 µM) show? 0.575

----------
# Test system: H3255
# EXPERIMENTAL PROTOCOL: relative viability (nuclei count vs DMSO), 5 days (fraction); higher = more cells survive
# RECORDED CONDITIONS: first compound 0.01 µM
OBSERVED PROPERTY: relative viability
Number only, please.

The cases that follow already have their relative viability on record.
Notebook: pull reported relative viability for H3255, entry NC(=O)Nc1cc(-c2cccc(F)c2)sc1C(=O)N[C@H]1CCCNC1 [AZD7762] + CC1(C)CCC(c2ccc(Cl)cc2)=C(CN2CCN(c3ccc(C(=O)NS(=O)(=O)c4ccc(N[C@H](CCN5CCOCC5)CSc5ccccc5)c(S(=O)(=O)C(F)(F)F)c4)cc3)CC2)C1 [Navitoclax] (partner 0.5 µM) 0.51

Try this compound too: NC(=O)Nc1cc(-c2cccc(F)c2)sc1C(=O)N[C@H]1CCCNC1 [AZD7762] + Cc1nc(NC(=O)N2CCC[C@H]2C(N)=O)sc1-c1ccnc(C(C)(C)C(F)(F)F)c1 [Alpelisib] (partner 2 µM) 0.727

Try this compound too: NC(=O)Nc1cc(-c2cccc(F)c2)sc1C(=O)N[C@H]1CCCNC1 [AZD7762] + COc1cc2c(Oc3ccc(NC(=O)C4(C(=O)Nc5ccc(F)cc5)CC4)cc3F)ccnc2cc1OCCCN1CCOCC1 [Foretinib] (partner 0.25 µM) 1.12

Try this compound too: NC(=O)Nc1cc(-c2cccc(F)c2)sc1C(=O)N[C@H]1CCCNC1 [AZD7762] + CCNC(=O)c1noc(-c2cc(C(C)C)c(O)cc2O)c1-c1ccc(CN2CCOCC2)cc1 [Luminespib] (partner 0.01 µM) 1.02

Try this compound too: NC(=O)Nc1cc(-c2cccc(F)c2)sc1C(=O)N[C@H]1CCCNC1 [AZD7762] + CC(=O)Nc1cccc(-n2c(=O)n(C3CC3)c(=O)c3c(Nc4ccc(I)cc4F)n(C)c(=O)c(C)c32)c1 [Trametinib] (partner 0.02 µM) 0.71

Further cases:
Notebook: pull reported relative viability for H3255, entry NC(=O)Nc1cc(-c2cccc(F)c2)sc1C(=O)N[C@H]1CCCNC1 [AZD7762] + CC(C)C[C@H](NC(=O)[C@H](Cc1ccccc1)NC(=O)c1cnccn1)B(O)O [Bortezomib] (partner 0.002 µM) 0.818

----------
# Test system: NCI-H1915
# EXPERIMENTAL PROTOCOL: relative viability (nuclei count vs DMSO), 5 days (fraction); higher = more cells survive
# RECORDED CONDITIONS: first compound 2.53 µM
Labelling: relative viability reported below 0.8 becomes true (1); at or above becomes false (0).

Example entries begin here.
Is relative viability strictly under 0.8 for the entry C=C1C(=O)O[C@@H](CCCCCCCC)[C@@H]1C(=O)O [C-75] + Cc1nc(NC(=O)N2CCC[C@H]2C(N)=O)sc1-c1ccnc(C(C)(C)C(F)(F)F)c1 [Alpelisib] (partner 2 µM) ? true (1)

Try this compound too: Oc1nc(-c2ccc(C(F)(F)F)cc2)nc2c1CSCC2 [XAV939] + COc1cc2c(Oc3ccc(NC(=O)C4(C(=O)Nc5ccc(F)cc5)CC4)cc3F)ccnc2cc1OCCCN1CCOCC1 [Foretinib] (partner 0.25 µM) false (0)

Try this compound too: Oc1nc(-c2ccc(C(F)(F)F)cc2)nc2c1CSCC2 [XAV939] + O=C(CCCCCCC(=O)Nc1ccccc1)NO [Vorinostat] (partner 1 µM) true (1)

Please examine the following record next.
Is relative viability strictly under 0.8 for the entry C=C1C(=O)O[C@@H](CCCCCCCC)[C@@H]1C(=O)O [C-75] + COc1cccc2cc(-c3nc([C@H]4CC[C@H](C(=O)O)CC4)n4ncnc(N)c34)[nH]c12 [OSI-027] (partner 0.5 µM) ? true (1)

Taken from the supplement of paper PMC10307832.
